system: UACC-257 melanoma; assay: NCI tumour cell line growth inhibition, 48 h
Quick list: TGI per entry.
Property label: TGI (µM)

Molecule	Property label	Result modifier	Observed value
CNNC1=NS(=O)(=O)c2cc(C(=O)OC)c(Cl)cc2S1	TGI	>	10
CCCCCCCCOC(=O)c1cc(O)c(O)c(O)c1	TGI	=	45.4
c1csc(-c2cc(-c3ccsc3)c(-c3cccs3)s2)c1	TGI	>	100
Cc1nnc2sc(-c3ccc(N)cc3)nn12	TGI	>	100
COc1ccc(C(F)(F)F)cc1NC(=O)O/N=C(/Cl)C(C)C	TGI	=	42.5
COc1ncnc2c1ncn2C/C(Br)=C(\Br)CCl	TGI	=	3.9
CC(C)C(OC(=O)c1cc(NC(=S)c2ccccc2)ccc1Cl)C(C)C	TGI	=	58.5
CCOC(=O)C1=C(C)N2CCCOC2(C)C(C(=O)OC)C1c1cccc([N+](=O)[O-])c1 (stereo not drawn)	TGI	>	100
CCCCC/C=C1\CCC(CN2CCOCC2)C1=O (stereo not drawn)	TGI	=	24.5
COc1ccc(-n2nc(C)c3c(Nc4ccc(NC(=O)Nc5cc(C(F)(F)F)ccc5F)cc4)ncnc32)cc1	TGI	=	4.42
Cc1nc(SCC(=O)Nc2ccccc2)c2sc(=S)n(-c3ccccc3)c2n1	TGI	>	10
CN1NC(c2ccccc2)=C(C#N)C(=O)CC1c1ccccc1Cl (stereo not drawn)	TGI	>	100
O=C(O)c1cc2c3c(c1)[C@H]1C=CC[C@H]1CN3CC1CC=CC21 (stereo partly drawn)	TGI	>	100
COc1cc([C@@H]2c3cc4c(cc3[C@@H](NC(=O)c3ccc(C(C)=O)cc3)C3COC(=O)[C@@H]32)OCO4)cc(OC)c1O (stereo partly drawn)	TGI	=	32.2
NC(N)=NS(=O)(=O)c1ccc(NC(=O)c2ccc(Cl)c3c(Nc4ccc(S(=O)(=O)N=C(N)N)cc4)c4ccccc4nc23)cc1	TGI	>	100
CC(C)(C)c1cc2c(OP(c3ccccc3)c3ccccc3)c(c1)Cc1cc(C(C)(C)C)cc(c1OP(c1ccccc1)c1ccccc1)Cc1cc(C(C)(C)C)cc(c1OP(c1ccccc1)c1ccccc1)Cc1cc(C(C)(C)C)cc(c1OP(c1ccccc1)c1ccccc1)C2	TGI	>	50
CC(=O)[CH-]C(=O)c1ccccc1.CC(=O)[CH-]C(=O)c1ccccc1.CC(C)CCCC(C)[C@H]1CCC2[C@@H]3CCC4C[C@@H]([O-])CC[C@]4(C)C3CC[C@@]21C.CC(C)CCCC(C)[C@H]1CCC2[C@@H]3CCC4C[C@@H]([O-])CC[C@]4(C)C3CC[C@@]21C.Cl.[Ti+4] (stereo partly drawn)	TGI	>	25
C[C@@H]1O[C@@H]2OCC[C@@H]2C2=C1C(=O)c1ccccc1C2=O	TGI	=	24.5
